# credit: BindingDB's records for doi:10.1124/jpet.105.084343

TARGET UNDER TEST: Delta-type opioid receptor (Homo sapiens)
Sequence (P41143 whole entry): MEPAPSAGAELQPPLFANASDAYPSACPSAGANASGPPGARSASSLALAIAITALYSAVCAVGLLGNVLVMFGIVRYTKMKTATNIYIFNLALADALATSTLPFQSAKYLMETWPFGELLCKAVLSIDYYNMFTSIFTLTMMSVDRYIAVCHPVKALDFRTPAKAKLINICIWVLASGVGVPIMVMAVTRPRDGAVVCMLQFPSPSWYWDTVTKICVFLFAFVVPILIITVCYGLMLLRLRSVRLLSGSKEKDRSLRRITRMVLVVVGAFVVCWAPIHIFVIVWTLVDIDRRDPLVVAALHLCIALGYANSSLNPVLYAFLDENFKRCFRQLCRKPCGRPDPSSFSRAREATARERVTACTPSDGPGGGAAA
ASSAY METRIC: Ki (µM)
Answers are plain numbers, in µM.

Provide value of Ki for this record tested with Delta-type opioid receptor (Homo sapiens): O=C(/C=C/C(=O)Oc1ccc2c(c1)[C@]13CCCCC1[C@H](C2)N(CC1CCC1)CC3)Oc1ccc2c(c1)[C@]13CCCCC1[C@H](C2)N(CC1CCC1)CC3 (stereo partly specified) [MCL-145]
9.4

----------
The following compounds have recorded pKi on Kappa-type opioid receptor (Homo sapiens, UniProt P41145).
Sequence (P41145 whole entry): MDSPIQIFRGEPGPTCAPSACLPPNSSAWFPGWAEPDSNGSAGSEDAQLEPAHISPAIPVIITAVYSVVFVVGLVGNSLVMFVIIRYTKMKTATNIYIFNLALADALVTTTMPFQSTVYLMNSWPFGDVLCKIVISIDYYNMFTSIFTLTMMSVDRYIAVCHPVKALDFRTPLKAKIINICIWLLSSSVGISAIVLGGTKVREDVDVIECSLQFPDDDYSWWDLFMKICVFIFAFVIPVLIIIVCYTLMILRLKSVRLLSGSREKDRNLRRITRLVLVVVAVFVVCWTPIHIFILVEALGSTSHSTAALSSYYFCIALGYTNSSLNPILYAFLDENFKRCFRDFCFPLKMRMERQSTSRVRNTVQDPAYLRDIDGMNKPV
Give bare numbers, as −log10 of the molar value.

{"COMPOUND": "Oc1ccc2c(c1)[C@@]13CCCC[C@H]1C(C2)N(CC1CCC1)CC3", "MEASURED": 7.10}

With those in mind, consider the next compound.
Provide value of pKi for this record tested with Kappa-type opioid receptor (Homo sapiens, UniProt P41145): O=C(/C=C/C(=O)Oc1ccc2c(c1)[C@]13CCCCC1[C@H](C2)N(CC1CCC1)CC3)Oc1ccc2c(c1)[C@]13CCCCC1[C@H](C2)N(CC1CCC1)CC3 (some centres not stated)
7.11
